Listing of entries alongside the reported IC50.
- experimental_target: human P2X4 (Homo sapiens, UniProt Q99571)
- Sequence (Q99571 1-388): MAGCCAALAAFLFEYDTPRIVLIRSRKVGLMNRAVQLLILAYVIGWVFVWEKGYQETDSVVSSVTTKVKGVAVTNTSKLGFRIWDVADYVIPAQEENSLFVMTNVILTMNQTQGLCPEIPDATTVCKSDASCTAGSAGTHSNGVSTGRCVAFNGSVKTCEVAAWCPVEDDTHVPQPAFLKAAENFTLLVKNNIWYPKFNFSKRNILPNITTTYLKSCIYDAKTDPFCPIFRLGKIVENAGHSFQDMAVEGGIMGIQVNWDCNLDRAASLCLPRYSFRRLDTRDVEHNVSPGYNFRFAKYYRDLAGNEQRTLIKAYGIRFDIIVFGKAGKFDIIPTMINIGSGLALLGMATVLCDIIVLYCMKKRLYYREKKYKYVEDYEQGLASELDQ
- test_name: Human P2X4 HEK Cell FLIPR Assay
- conditions_used: HEK293 stably expressing human P2X4; agonist Bz-ATP 3 μM (EC80); read-out: Human P2X4 HEK Cells (FLIPR Assay) avg IC50
Answer in nM, number only, no unit symbol.

Example results:
IC50 for CC(=O)N(c1cccc(F)c1)c1cc(NC(=O)Cc2c(Cl)cccc2Cl)cnn1 [Example 194] ? 407

Now this one: CC(=O)N(c1cc(F)cc(C#N)c1)c1cc(NC(=O)Cc2ccccc2Cl)ccn1 [Example 145] 234

Now this one: CC(=O)N(c1cc(NC(=O)Cc2cccc(F)c2Cl)ccn1)c1ccc(C)cc1C [Example 171] 511

Now this one: CC(=O)N(c1cc(NC(=O)Cc2ccc(F)cc2Cl)ccn1)c1ccccc1F [Example 116] 520

Now this one: CC(=O)N(c1cc(NC(=O)Cc2c(F)cccc2Cl)ccn1)c1ccccc1C(F)F [Example 168] 761

Now this one: COc1cc(F)cc(N(C(C)=O)c2cc(NC(=O)Cc3cccc(F)c3Cl)ccn2)c1 [Example 160] 383

Now this one: CC(=O)N(c1ccc(S(C)(=O)=O)c(Cl)c1)c1cc(NC(=O)Cc2cccc(F)c2Cl)ccn1 [Example 156] 512

Now this one: COc1cc(F)cc(N(C(C)=O)c2cc(NC(=O)Cc3ccccc3Cl)ccn2)c1 [Example 161] 479

Now this one: COc1cccc(N(C(C)=O)c2cc(NC(=O)Cc3ccccc3Cl)ccn2)c1 [Example 100] 408

Now this one: CC(=O)N(c1cc(NC(=O)Cc2cccc(F)c2Cl)ccn1)c1ccccc1Cl [Example 108] 769

Others:
IC50 for CC(=O)N(c1cc(F)cc(Cl)c1)c1cc(NC(=O)Cc2c(F)cccc2Cl)ccn1 [Example 140] ? 271

Now this one: CC(=O)N(c1ccc(F)c(Cl)c1)c1cc(NC(=O)Cc2ccc(F)cc2Cl)ccn1 [Example 51] 493

Now this one: CC(=O)N(c1ccc(F)cc1)c1cc(NC(=O)Cc2ccccc2Cl)ccn1 [Example 36] 206

----------
- experimental_target: human P2X4 (Homo sapiens)
- test_name: Human P2X4 HEK Cell FLIPR Assay
- conditions_used: HEK293 stably expressing human P2X4; agonist Bz-ATP 3 μM (EC80); read-out: Human P2X4 HEK Cells (FLIPR Assay) avg IC50
readout_type: IC50 (nM)
Answer in nM, number only, no unit symbol.

IC50 for CC(=O)N(c1cc(NC(=O)Cc2ccc(F)cc2Cl)ccn1)c1ccccc1Cl ? 550

Now this one: CC(=O)N(c1cc(F)cc(C#N)c1)c1cc(NC(=O)Cc2cccc(F)c2Cl)ccn1 384

Now this one: CC(=O)N(c1cc(C)cc(C#N)c1)c1cc(NC(=O)Cc2cccc(F)c2Cl)ccn1 578

----------
- experimental_target: human P2X4 (Homo sapiens, UniProt Q99571)
- Construct: expressed in transfected cells
- test_name: Human P2X4 HEK Cell FLIPR Assay
- Format: cell-based
- conditions_used: HEK293 stably expressing human P2X4; agonist Bz-ATP 3 μM (EC80)
Listing of entries alongside the reported Human P2X4 HEK Cells (FLIPR Assay) avg Efficacy.
Answer in %, number only, no unit symbol.

Human P2X4 HEK Cells (FLIPR Assay) avg Efficacy for CC(=O)N(c1cc(NC(=O)Cc2cccc(F)c2Cl)ccn1)c1ccc(C)cc1C [Example 171] ? 103

Now this one: COc1cc(F)cc(N(C(C)=O)c2cc(NC(=O)Cc3c(F)cccc3Cl)ccn2)c1 [Example 164] 100

Now this one: CC(=O)N(c1ccc(F)c(F)c1)c1cc(NC(=O)Cc2cccc(F)c2Cl)ccn1 [Example 71] 96

Now this one: COc1cccc(N(C(C)=O)c2cc(NC(=O)Cc3ccccc3Cl)ccn2)c1 [Example 100] 98

Now this one: CC(=O)N(c1ccc(C)cc1)c1cc(NC(=O)Cc2ccc(F)cc2Cl)ccn1 [Example 44] 99

Now this one: CC(=O)N(c1ccc(S(C)(=O)=O)c(Cl)c1)c1cc(NC(=O)Cc2ccc(F)cc2Cl)ccn1 [Example 159] 99

Now this one: CC(=O)N(c1cccc(Cl)c1)c1cc(NC(=O)Cc2ccc(F)cc2Cl)ccn1 [Example 132] 98

Now this one: CC(=O)N(c1cc(F)cc(F)c1)c1cc(NC(=O)Cc2c(Cl)cccc2Cl)ccn1 [Example 89] 99

Others:
Human P2X4 HEK Cells (FLIPR Assay) avg Efficacy for CC(=O)N(c1cc(F)cc(F)c1)c1cc(NC(=O)Cc2cccc(F)c2Cl)ccn1 [Example 88] ? 97

Now this one: CC(=O)N(c1cc(NC(=O)Cc2cccc(F)c2Cl)ccn1)c1cccc(F)c1F [Example 124] 94

Now this one: CC(=O)N(c1cc(NC(=O)Cc2cccc(F)c2Cl)ccn1)c1cc(F)ccc1Cl [Example 113] 97

Now this one: CC(=O)N(c1cc(NC(=O)Cc2cccc(F)c2Cl)ccn1)c1ccc(F)cc1F [Example 128] 101

Now this one: CC(=O)N(c1cc(C)cc(C#N)c1)c1cc(NC(=O)Cc2c(Cl)cccc2Cl)ccn1 [Example 176] 101

Now this one: CC(=O)N(c1ccc(F)c(F)c1)c1cc(NC(=O)Cc2cccc(C)c2C)ccn1 [Example 62] 91

Now this one: CC(=O)N(c1ccc(C)cc1)c1cc(NC(=O)Cc2cccc(F)c2Cl)ccn1 [Example 45] 102

Now this one: COc1c(F)cc(N(C(C)=O)c2cc(NC(=O)Cc3c(Cl)cccc3Cl)ccn2)cc1F [Example 99] 95

Now this one: CC(=O)N(c1cccc(Cl)c1)c1cc(NC(=O)Cc2ccccc2Cl)ccn1 [Example 131] 98

Now this one: CC(=O)N(c1ccc(S(C)(=O)=O)c(F)c1)c1cc(NC(=O)Cc2c(Cl)cccc2Cl)ccn1 [Example 82] 97

Now this one: CC(=O)N(c1cccc(F)c1)c1cc(NC(=O)Cc2ccccc2Cl)ccn1 [Example 54] 97

Now this one: CC(=O)N(c1cccc(C(F)(F)F)c1)c1cc(NC(=O)Cc2cccc(F)c2Cl)ccn1 [Example 8] 97

----------
- experimental_target: UniProtKB Q99571
- test_name: Human P2X4 HEK Cell FLIPR Assay
- conditions_used: HEK293 stably expressing human P2X4; agonist Bz-ATP 3 μM (EC80); read-out: Human P2X4 HEK Cells (FLIPR Assay) avg IC50
readout_type: pIC50
Kindly note that pIC50 refers to -log10 of the concentration in mol/L and answer with the value alone.

Example results:
pIC50 for CC(=O)N(c1ccc(Cl)c(F)c1)c1cc(NC(=O)Cc2cccc(F)c2Cl)ccn1 ? 6.34

Now this one: CC(=O)N(c1cc(NC(=O)Cc2ccccc2Cl)ccn1)c1ccc(F)cc1F 6.75

Now this one: CC(=O)N(c1cc(F)cc(F)c1)c1cc(NC(=O)Cc2ccccc2Cl)ccn1 6.71

Now this one: CC(=O)N(c1ccc(F)c(Cl)c1)c1cc(NC(=O)Cc2ccccc2Cl)ccn1 6.45

Now this one: CC(=O)N(c1cc(F)c(C)c(F)c1)c1cc(NC(=O)Cc2cccc(F)c2Cl)ccn1 6.15

Now turn to the next molecule.
pIC50 for COc1ccc(CC(=O)Nc2ccnc(N(C(C)=O)c3ccc(F)c(F)c3)c2)c(Cl)c1 ? 6.15

All figures here come from patent US20230257351A1.
